- TARGET UNDER TEST: 5-HT2 receptor (Sus scrofa, UniProt P50129)
- Construct: membrane preparations from porcine cortical material; from tissue; host or cells: porcine cerebral cortex membranes
- Sequence (P50129 whole entry): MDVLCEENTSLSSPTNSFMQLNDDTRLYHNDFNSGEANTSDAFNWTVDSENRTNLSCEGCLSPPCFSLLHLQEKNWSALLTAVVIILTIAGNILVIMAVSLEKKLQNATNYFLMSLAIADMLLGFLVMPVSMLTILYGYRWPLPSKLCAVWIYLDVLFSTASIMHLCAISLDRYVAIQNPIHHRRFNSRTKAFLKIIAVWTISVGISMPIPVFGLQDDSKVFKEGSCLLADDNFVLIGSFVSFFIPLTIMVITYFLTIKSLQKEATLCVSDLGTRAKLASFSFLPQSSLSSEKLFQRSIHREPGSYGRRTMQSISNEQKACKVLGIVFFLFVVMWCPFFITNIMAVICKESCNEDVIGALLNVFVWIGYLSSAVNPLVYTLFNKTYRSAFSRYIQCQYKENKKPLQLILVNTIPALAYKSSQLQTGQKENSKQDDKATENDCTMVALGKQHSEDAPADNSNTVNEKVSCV
- TEST NAME: radioligand binding, porcine cortical membranes, [^3H]ketanserin
- CONDITIONS: porcine cortical membranes, [^3H]ketanserin
Answer each item with its documented Ki.

Record O=Cc1cnn2c(OCCCCN3CCN(c4ccccc4Cl)CC3)cccc12 : what is its Ki with 5-HT2 receptor (Sus scrofa, UniProt P50129)?
30 to 300 nM

Record N#Cc1cnn2ccc(OCCCCN3CCN(c4ccccc4Cl)CC3)cc12 : what is its Ki with 5-HT2 receptor (Sus scrofa, UniProt P50129)?
30 to 300 nM

Record COc1ccc(N2CCN(CCCCOc3ccn4nccc4c3)CC2)cc1 : what is its Ki with 5-HT2 receptor (Sus scrofa, UniProt P50129)?
301 to 3000 nM

Record COc1ccccc1N1CCN(CCCCOc2cc3ccccn3n2)CC1 [Example E2] : what is its Ki with 5-HT2 receptor (Sus scrofa, UniProt P50129)?
301 to 3000 nM

Record COc1ccccc1N1CCN(CCCCOc2ccn3ncc(C)c3c2)CC1 : what is its Ki with 5-HT2 receptor (Sus scrofa, UniProt P50129)?
301 to 3000 nM
